// tissue uptake dose at 24 h lookup, one value per entry
# measurement-notes: Ex vivo biodistribution and tumor targeting
# protocol-conditions: female, BALB/c nu/nu, mouse, gastrointestinal tract with content (whole sample), iv, 45 pmol per mouse, total radioactivity
observed-property: tissue uptake dose at 24 h (%ID)

[[record]]
compound = "CC(C)C[C@H](NC(=O)C[C@H](O)[C@H](CC(C)C)NC(=O)[C@H](Cc1c[nH]cn1)NC(=O)CNC(=O)[C@@H](NC(=O)[C@H](C)NC(=O)[C@H](Cc1c[nH]c2ccccc12)NC(=O)[C@H](CCC(N)=O)NC(=O)[C@@H](Cc1ccccc1)NC(=O)COCCOCCNC(=O)CCC(C(=O)O)N1CCN(CC(=O)O)CCN(CC(=O)O)CCN(CC(=O)O)CC1)C(C)C)C(N)=O (stereo partly shown) [DOTAGA]"
observed_property = "tissue uptake dose at 24 h"
quantitative_result = 0.1

[[record]]
compound = "CC(C)C[C@H](NC(=O)C[C@H](O)[C@H](CC(C)C)NC(=O)[C@H](Cc1c[nH]cn1)NC(=O)CNC(=O)[C@@H](NC(=O)[C@H](C)NC(=O)[C@H](Cc1c[nH]c2ccccc12)NC(=O)[C@H](CCC(N)=O)NC(=O)[C@@H](Cc1ccccc1)NC(=O)COCCOCCNC(=O)CN1CCN(CC(=O)O)CCN(CC(=O)O)CC1)C(C)C)C(N)=O [NOTA]"
observed_property = "tissue uptake dose at 24 h"
quantitative_result = 0.09

[[record]]
compound = "CC(C)C[C@H](NC(=O)C[C@H](O)[C@H](CC(C)C)NC(=O)[C@H](Cc1c[nH]cn1)NC(=O)CNC(=O)[C@@H](NC(=O)[C@H](C)NC(=O)[C@H](Cc1c[nH]c2ccccc12)NC(=O)[C@H](CCC(N)=O)NC(=O)[C@@H](Cc1ccccc1)NC(=O)COCCOCCNC(=O)CN1CCN(CC(=O)O)CCN(CC(=O)O)CCN(CC(=O)O)CC1)C(C)C)C(N)=O [DOTA]"
observed_property = "tissue uptake dose at 24 h"
quantitative_result = 0.21

[[record]]
compound = "CC(C)C[C@H](NC(=O)C[C@H](O)[C@H](CC(C)C)NC(=O)[C@H](Cc1c[nH]cn1)NC(=O)CNC(=O)[C@@H](NC(=O)[C@H](C)NC(=O)[C@H](Cc1c[nH]c2ccccc12)NC(=O)[C@H](CCC(N)=O)NC(=O)[C@@H](Cc1ccccc1)NC(=O)COCCOCCNC(=O)CCC(C(=O)O)N1CCN(CC(=O)O)CCN(CC(=O)O)CC1)C(C)C)C(N)=O (stereo partly shown) [NODAGA]"
observed_property = "tissue uptake dose at 24 h"
quantitative_result = 0.3


====

Measured tissue uptake at 24 h, listed per entry for reference.
# measurement-notes: Ex vivo biodistribution and tumor targeting
# protocol-conditions: female, BALB/c nu/nu, mouse, blood, iv, 45 pmol per mouse, total radioactivity, Blood uptake, PC-3-xenografted BALB/c nu/nu mice, iv 25 kBq/45 pmol, 24 h pi, 4 mice per data point
observed-property: tissue uptake at 24 h (%ID/g)

[[record]]
molecule = "CC(C)C[C@H](NC(=O)C[C@H](O)[C@H](CC(C)C)NC(=O)[C@H](Cc1c[nH]cn1)NC(=O)CNC(=O)[C@@H](NC(=O)[C@H](C)NC(=O)[C@H](Cc1c[nH]c2ccccc12)NC(=O)[C@H](CCC(N)=O)NC(=O)[C@@H](Cc1ccccc1)NC(=O)COCCOCCNC(=O)CN1CCN(CC(=O)O)CCN(CC(=O)O)CC1)C(C)C)C(N)=O"
result_unit = "%ID/g"
quantitative_result = 0.006

[[record]]
molecule = "CC(C)C[C@H](NC(=O)C[C@H](O)[C@H](CC(C)C)NC(=O)[C@H](Cc1c[nH]cn1)NC(=O)CNC(=O)[C@@H](NC(=O)[C@H](C)NC(=O)[C@H](Cc1c[nH]c2ccccc12)NC(=O)[C@H](CCC(N)=O)NC(=O)[C@@H](Cc1ccccc1)NC(=O)COCCOCCNC(=O)CCC(C(=O)O)N1CCN(CC(=O)O)CCN(CC(=O)O)CCN(CC(=O)O)CC1)C(C)C)C(N)=O (stereo partly shown)"
result_unit = "%ID/g"
quantitative_result = 0.005

[[record]]
molecule = "CC(C)C[C@H](NC(=O)C[C@H](O)[C@H](CC(C)C)NC(=O)[C@H](Cc1c[nH]cn1)NC(=O)CNC(=O)[C@@H](NC(=O)[C@H](C)NC(=O)[C@H](Cc1c[nH]c2ccccc12)NC(=O)[C@H](CCC(N)=O)NC(=O)[C@@H](Cc1ccccc1)NC(=O)COCCOCCNC(=O)CCC(C(=O)O)N1CCN(CC(=O)O)CCN(CC(=O)O)CC1)C(C)C)C(N)=O (stereo partly shown)"
result_unit = "%ID/g"
quantitative_result = 0.006

[[record]]
molecule = "CC(C)C[C@H](NC(=O)C[C@H](O)[C@H](CC(C)C)NC(=O)[C@H](Cc1c[nH]cn1)NC(=O)CNC(=O)[C@@H](NC(=O)[C@H](C)NC(=O)[C@H](Cc1c[nH]c2ccccc12)NC(=O)[C@H](CCC(N)=O)NC(=O)[C@@H](Cc1ccccc1)NC(=O)COCCOCCNC(=O)CN1CCN(CC(=O)O)CCN(CC(=O)O)CCN(CC(=O)O)CC1)C(C)C)C(N)=O"
result_unit = "%ID/g"
quantitative_result = 0.007


Values were extracted from paper PMC6863848.
